pIC50: −log10 of the molar value.
// pIC50 collected for human JAK3 (Homo sapiens (Human))

Example compounds with recorded pIC50:
COc1c(Nc2cc(Nc3ccc(OC[C@H](O)CO)cn3)ncc2C(=O)C2CC2)cccc1-c1ncn(C)n1 [Compound 18J] : ≤ 6.30
CCC(=O)c1cnc(Nc2ccc(-n3cccn3)cn2)cc1Nc1cccc(-c2ncn(C)n2)c1OC [Compound 15H] : ≤ 6.30
CCC(=O)c1cnc(Nc2ccc(OCCN3CCCC3)cn2)cc1Nc1cccc(-c2ncn(C)n2)c1OC [Compound 10A] : ≤ 6.30
CCC(=O)c1cnc(Nc2cnc(OCCN3CC[C@H](F)C3)cn2)cc1Nc1cccc(-c2ncn(C)n2)c1OC [Compound 18XX] : ≤ 6.30
COc1c(Nc2cc(Nc3ccc(OCCCO)cn3)ncc2C(=O)C2CC2)cccc1-c1ncn(C)n1 [Compound 18C] : ≤ 6.30

*Q* Param readout = pIC50; param system = human JAK3 (Homo sapiens (Human)); param query = CCC(=O)c1cnc(Nc2ccc(CN3C[C@@H](C)O[C@@H](C)C3)cn2)cc1Nc1cccc(-c2ncn(C)n2)c1OC [Compound 9UU] ; response: value
Sequence (P52333 whole entry): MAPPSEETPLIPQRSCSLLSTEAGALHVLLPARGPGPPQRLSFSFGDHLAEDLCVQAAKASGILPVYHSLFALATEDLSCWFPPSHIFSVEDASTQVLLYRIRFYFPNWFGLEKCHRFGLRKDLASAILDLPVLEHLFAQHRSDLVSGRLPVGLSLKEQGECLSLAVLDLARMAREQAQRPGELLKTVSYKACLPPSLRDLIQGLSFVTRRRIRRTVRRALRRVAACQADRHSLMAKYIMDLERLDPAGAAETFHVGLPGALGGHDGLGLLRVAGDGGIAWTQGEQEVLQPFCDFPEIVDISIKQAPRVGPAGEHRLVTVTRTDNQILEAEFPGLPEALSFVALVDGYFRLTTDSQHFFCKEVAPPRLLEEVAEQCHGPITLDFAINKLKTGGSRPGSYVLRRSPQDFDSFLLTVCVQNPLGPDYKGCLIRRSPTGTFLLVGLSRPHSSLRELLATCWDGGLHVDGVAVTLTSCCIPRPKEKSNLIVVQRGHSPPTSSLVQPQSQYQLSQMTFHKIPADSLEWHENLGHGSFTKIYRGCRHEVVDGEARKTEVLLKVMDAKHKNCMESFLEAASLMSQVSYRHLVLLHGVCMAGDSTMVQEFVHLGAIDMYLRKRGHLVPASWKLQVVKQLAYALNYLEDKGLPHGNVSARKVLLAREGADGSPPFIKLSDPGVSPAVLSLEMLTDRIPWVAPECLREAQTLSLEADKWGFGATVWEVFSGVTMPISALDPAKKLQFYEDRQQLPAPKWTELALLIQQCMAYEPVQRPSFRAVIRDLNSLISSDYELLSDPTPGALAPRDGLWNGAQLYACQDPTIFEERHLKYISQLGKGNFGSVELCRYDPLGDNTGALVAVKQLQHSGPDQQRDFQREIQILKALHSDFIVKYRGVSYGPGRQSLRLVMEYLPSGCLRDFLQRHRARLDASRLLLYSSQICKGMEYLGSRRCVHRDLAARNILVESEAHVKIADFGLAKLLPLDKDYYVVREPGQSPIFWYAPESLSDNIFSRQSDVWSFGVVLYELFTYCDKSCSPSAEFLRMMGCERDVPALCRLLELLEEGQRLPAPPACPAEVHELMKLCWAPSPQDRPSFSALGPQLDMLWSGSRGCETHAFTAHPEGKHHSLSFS
*A* ≤ 6.30

*Q* Param readout = pIC50; param system = human JAK3 (Homo sapiens (Human)); param query = CCC(=O)c1cnc(Nc2ccc(CN3C4COCC3C4)cn2)cc1Nc1cccc(-c2ncn(C)n2)c1OC [Compound 9XX] ; response: value
*A* 6.30 to 7.30

*Q* Param readout = pIC50; param system = human JAK3 (Homo sapiens (Human)); param query = CCC(=O)c1cnc(Nc2ccc(CN3CC(F)C3)cn2)cc1Nc1cccc(-c2ncn(C)n2)c1OC [Compound 9EE] ; response: value
*A* 6.30 to 7.30

*Q* Param readout = pIC50; param system = human JAK3 (Homo sapiens (Human)); param query = CCC(=O)c1cnc(Nc2ccc(OC3CN(C)C3)cn2)cc1Nc1cccc(-c2ncn(C)n2)c1OC [Compound 18U] ; response: value
*A* ≤ 6.30

These measurements were taken from patent US20230295119A1.
